The reported numbers originate from PubChem BioAssay AID256.

System: CD2F1 mice, L1210 leukemia ip, survival T/C
ASSAY_PROTOCOL: NCI In Vivo Anticancer Drug Screen. Data for tumor model L1210 Leukemia (intraperitoneal) in CD2F1 (CDF1) mice
REPORTED_CONDITIONS: endpoint: mean survival time; dose: 40.0 mg/kg/injection; schedule: Q01DX001 (ip); vehicle: saline; higher = longer survival
Inconclusive results and toxic doses are left out.
Assignment: determine reported T/C for the given compounds.

Suppose we examine the compound COc1cccc2c1C(=O)c1c(O)c3c(c(O)c1C2=O)C[C@@](O)(C(C)=O)C[C@@H]3OC1CC(N)C(O)C(C)O1 (some centres undefined) ; what T/C value has been reported?
62 % of control

Given the compound Cc1ccc([P+](Cc2ccccc2)(c2ccccc2)c2ccccc2)cc1 , what is its reported T/C?
109 % of control

Returns the measured T/C for the input compound. Input: CC(O)CC1CCCC(CC(C)O)N1 (centres undefined)
105 % of control

Request the reported T/C associated with Cc1cccc(C)c1OC(=O)Cl
97 % of control

====

Test system: CD2F1 mice, L1210 leukemia ip, survival T/C
ASSAY_PROTOCOL: NCI In Vivo Anticancer Drug Screen. Data for tumor model L1210 Leukemia (intraperitoneal) in CD2F1 (CDF1) mice
REPORTED_CONDITIONS: endpoint: mean survival time; dose: 100.0 mg/kg/injection; schedule: Q01DX009 (ip); vehicle: saline; higher = longer survival
Toxic doses and inconclusive results are not listed.
MEASURE_NAME: T/C

Look up T/C for this molecule: OCCCNCc1ccccc1
97 % of control

Entry under review: CC(C)N=C1N(C(C)C)C([O-])=N[N+]1(C)C . Reported T/C?
101 % of control

Consider the molecule shown here: NCCCc1ccccc1 What is its recorded T/C?
103 % of control

Fill in the blank: the reported T/C of N[C@@H](Cc1ccc(O)c(O)c1)C(=O)O is ____.
96 % of control

State the recorded T/C for this entry: C#CCCO
105 % of control

# query: T/C of entry NC(=O)Nc1ccccc1
98 % of control

T/C lookup needed for Cn1ccc(CON)n1 , thanks.
94 % of control

Fill blank: measured T/C of the molecule O=C(O)CS(=O)(=O)c1ccccc1 is ____.
89 % of control

Name the reported T/C value associated with the molecule C=CC(=O)N1CCN(C(=O)C=C)c2cc(C)c(C)cc21
100 % of control

====

Tested on: CD2F1 mice, L1210 leukemia ip, survival T/C
ASSAY_PROTOCOL: NCI In Vivo Anticancer Drug Screen. Data for tumor model L1210 Leukemia (intraperitoneal) in CD2F1 (CDF1) mice
REPORTED_CONDITIONS: endpoint: mean survival time; dose: 200.0 mg/kg/injection; schedule: Q01DX009 (ip); vehicle: saline
Inconclusive results and toxic doses are left out. The calls were made as follows: active = survival T/C of 150% or more; inactive = T/C below 125% in these data. Residues, ends and D or L forms follow the SMILES beside them. *: point of attachment. Boc = CC(C)(C)OC(=O)*; NHNH2 = NN*
Hello, when you answer, please use one of the following outcomes: active, inactive

// param item: Cc1cccc(=N)n1CCC(=O)O ; yields the recorded call
inactive

# outcome recorded in this test, key = OCC(O)COCc1ccccc1 (configuration not stated)
inactive

Could you please tell me the result logged for COC(=O)c1csc(CCN)n1 in this assay?
inactive

What was the test verdict on CCOC(=O)c1c[nH]c2oc(/C=N/N3CC(CN4CCOCC4)OC3=O)cc2c1=O (configuration not stated) ?
active

Field: outcome | Entry: O=c1[nH]c(=O)n(C2CC(O)C(CO)O2)cc1I (configuration not stated)
inactive

Hi, do you know how Cc1ccnc(NS(=O)(=O)c2ccc(N)cc2)n1 came out in this test?
inactive

Record request — test call for CCCCn1cnc2c(=S)nc[nH]c21
active

How did this test come out for NC(CSCc1cccs1)C(=O)O (configuration not stated) ?
inactive

Dear all, I need the recorded test outcome for CCOC(CCC#N)c1ccc(Cl)cc1 (configuration not stated) , thank you.
inactive

Recorded test call requested for O=C(CCl)Nc1ccccn1
inactive

What is the recorded call for this compound in the test? CC(C)CC(NC(=O)C(Cc1c[nH]c2ccccc12)NC(=O)OC(C)(C)C)C(=O)NN (stereo not drawn) (Boc-Trp-Leu-NHNH2; configuration not given here)
inactive

Call for entry Nc1c(Cl)c(Cl)nc(C(=O)O)c1Cl :
inactive

====

Tested on: CD2F1 mice, L1210 leukemia ip, survival T/C
ASSAY_PROTOCOL: NCI In Vivo Anticancer Drug Screen. Data for tumor model L1210 Leukemia (intraperitoneal) in CD2F1 (CDF1) mice
REPORTED_CONDITIONS: endpoint: mean survival time; dose: 50.0 mg/kg/injection; schedule: Q04DX002 (ip); vehicle: saline; higher = longer survival
Inconclusive results and toxic doses are left out.
Give measured T/C for each item. Keep answers brief.

Quick check: T/C of O=S(=O)(O)SCC1NCCCN1 ?
101 % of control

For NC(CS)=NCCc1nc2ccccc2[nH]1 , what is its reported T/C?
106 % of control

Any idea what its T/C is? The molecule is CNC1CC2CCC1(C)C2(C)C (configuration not stated)
112 % of control

Report T/C for NCC1CCNCC1 please.
97 % of control

Can you share its T/C? I mean this molecule: CCCCN=C(N)CCl
100 % of control

Recorded T/C for CN(C)CC(C)(C)C(=O)c1ccc(F)cc1 , please?
96 % of control

Endpoint output: T/C of SCC1=NCCN1 . Value?
98 % of control

====

System: CD2F1 mice, L1210 leukemia ip, survival T/C
ASSAY_PROTOCOL: NCI In Vivo Anticancer Drug Screen. Data for tumor model L1210 Leukemia (intraperitoneal) in CD2F1 (CDF1) mice
REPORTED_CONDITIONS: endpoint: mean survival time; dose: 200.0 mg/kg/injection; schedule: Q01DX001 (ip); vehicle: saline; higher = longer survival
Toxic doses and inconclusive results are not listed.
MEASURE_NAME: T/C

Quick one: T/C of CC12CCCC(CCCO)(C1)NC(=O)C2 (centres undefined) ?
101 % of control

GET /values?readout=T/C&item= Oc1ccc(Br)cc1/C=N/c1nc(-c2ccccc2)cs1.Oc1ccc(Br)cc1/C=N/c1nc(-c2ccccc2)cs1.[Co]
89 % of control

Need T/C of CC(C)(C)OC(=O)C12CCCC(C(=O)OC(C)(C)C)(OO1)O2 , thanks.
95 % of control

Bench note: what T/C did CCCN(CCC)S(=O)(=O)c1ccc(NC(=O)OC2CCCCCC2)cc1 show?
108 % of control

Would you mind telling me what T/C value was observed for COc1ccc2[nH]c3c(c2c1)CNCC3 ?
113 % of control

Fill blank: measured T/C of the compound CC(C)CCCN is ____.
97 % of control

What value of T/C has been recorded for this entry: Cc1cc(C)c(S(=O)O)c(C)c1
103 % of control

# lookup: T/C of CCOC(=O)C(C(=O)OCC)[N+](=O)[O-]
95 % of control

Look up T/C for this compound: O=C(CO)C(OC1OC(CO)C(O)C(O)C1O)C(O)C(O)CO (centres undefined)
97 % of control

Quick check: T/C of COC1OC(CO)C(NC(N)=O)C1O (centres undefined) ?
100 % of control

Returns the measured T/C for the input compound. Input: CCCCCCCCC/C=C(\CCCCCCCCCC)c1ccccc1
94 % of control

Using the record for CNC1(C(=O)c2ccccc2)CC2CCC1C2 (centres undefined) , report its T/C.
96 % of control

Dear colleague, I am looking for the recorded T/C of the following compound: CCC(=O)c1cc2c(cc1CC)C(C)(C)CCC2(C)C
93 % of control

// query T/C value for entry O=CC(O)C(O)C(O)CO (centres undefined)
93 % of control

If you can, please state the reported T/C value of S=c1[nH]cc[nH]1 .
100 % of control

Query: T/C; subject: CC(=O)C(C)(NCc1ccccc1)c1ccccc1 (centres undefined)
95 % of control

Please report the recorded T/C for [Ni+2].[S-]Cc1ccccc1.[S-]Cc1ccccc1 .
96 % of control

Please report the recorded T/C for CC(CN1c2ccccc2Sc2ccccc21)N(C)CCO (centres undefined) .
97 % of control

# get_value(readout='T/C', item= Cc1ncc(CO)c(/C=N/NC(N)=S)c1O )
100 % of control

Fill in: T/C of O=C(Nc1ccc(S(=O)(=O)F)cc1)c1ccc([N+](=O)[O-])cc1 is ___
100 % of control

Please report the recorded T/C for O=c1[nH]cnc2c1ncn2C1OCC(O)C(O)C1O (centres undefined) .
97 % of control

If you can, please state the reported T/C value of O=[N+]([O-])c1cccnc1SSc1ncccc1[N+](=O)[O-] .
90 % of control

Entry CCCCCCCCNC(=O)CC : reported T/C = ?
100 % of control

Which T/C is listed for O=C(COc1cc(Cl)c(Cl)cc1Cl)OCCOc1cc(Cl)c(Cl)cc1Cl ?
86 % of control
